System: Jurkat
test summary: Antiproliferative activity against human Jurkat cells assessed as inhibition of cell proliferation incubated for 72 hrs by CCK8 assay
Type: functional, cell-based
Form field: GI50 (one value per entry).

Answered examples (8):
COC(=O)[C@H](Cc1ccccc1)NC(=O)COCC1=C[C@@H](C(C)(C)C)N(S(=O)(=O)c2ccccc2C)[C@H]1c1ccc(Cl)cc1
3.51 to 5.1 µM
Cc1ccccc1S(=O)(=O)N1[C@@H](c2cccc(Cl)c2)C(C(=O)O)=CC[C@H]1c1ccc(Cl)cc1
20 µM
CC(C)(C)[C@@H]1C=C(C(=O)N[C@@H](Cc2ccccc2)C(N)=O)[C@H](c2ccc(Br)cc2)N1S(=O)(=O)c1ccccc1Cl
4.74 to 8.75 µM
CC(C)C[C@H](NC(=O)C1=CC[C@@H](c2cccc(Br)c2)N(S(=O)(=O)c2ccc(F)cc2)[C@H]1c1cccc(Cl)c1)C(N)=O
0.32 to 1.76 µM
COC(=O)[C@H](Cc1ccccc1)NC(=O)C1=C[C@@H](C(C)(C)C)N(S(=O)(=O)c2ccccc2C)[C@H]1c1ccc(Cl)cc1
10.5 to 19 µM
Cc1ccccc1S(=O)(=O)N1[C@@H](c2cccc(Cl)c2)C(C(=O)N[C@@H](CC(C)C)C(N)=O)=CC[C@H]1c1ccc(Cl)cc1
6.1 µM
Cc1ccccc1S(=O)(=O)N1[C@@H](c2ccc(Cl)cc2)C(C(=O)N[C@@H](Cc2ccccc2)C(N)=O)=C[C@H]1C(C)(C)C
4.89 to 6.1 µM
CC(C)C[C@H](NC(=O)C1=CC[C@@H](c2cccc(Cl)c2)N(S(=O)(=O)c2ccc(Br)cc2)[C@H]1c1cccc(Br)c1)C(N)=O
2.22 to 6.38 µM

Now take the following molecule into account.
What GI50 value was documented for this molecule, NC(=O)[C@H](Cc1ccccc1)NC(=O)C1=CC[C@@H](c2cccc(Cl)c2)N(S(=O)(=O)c2ccc(Br)cc2)[C@H]1c1cccc(Cl)c1 ?
3.57 to 4.86 µM

* * *

Species on record: Rattus norvegicus
test summary: Inhibition of rat recombinant geranylgeranyltransferase type I expressed in Escherichia coli assessed as residual enzyme activity for geranylgeranylation of K-Ras4B at 50 uM incubated for 30 mins in presence of [3H]GGPP by scintillation counting assay relative to control
observed property: Activity (%)

Recorded results for 6 molecules are shown here.
COc1ccc([C@@H]2C[C@@H](SC3CCCC3)[C@H](C(=O)O)CN2S(=O)(=O)c2ccc(C)cc2)cc1OC
112
COc1cccc([C@@H]2CC=C(C(=O)O)[C@H](c3ccc(F)cc3)N2S(=O)(=O)c2ccc(C)cc2)c1
65
COc1cccc([C@@H]2C[C@@H](SCc3ccc(C(C)(C)C)cc3)[C@H](C(=O)O)CN2S(=O)(=O)c2ccc(C)cc2)c1
39
CCS[C@@H]1C[C@@H](c2ccc(C)cc2)N(S(=O)(=O)c2ccc(C)cc2)C[C@H]1C(=O)O
90.1
CCCCS[C@@H]1C[C@@H](c2ccccc2)N(S(=O)(=O)c2ccc(C)cc2)C[C@H]1C(=O)O
93.4
CCOc1ccc([C@@H]2C[C@@H](Sc3ccc(Cl)cc3)[C@H](C(=O)O)CN2S(=O)(=O)c2ccc(C)cc2)cc1
72.4

P. Cc1cccc([C@H]2C(C(=O)O)=CC[C@@H](c3ccccc3)N2S(C)(=O)=O)c1
Q. COc1ccc(S[C@@H]2C[C@@H](c3ccc4c(c3)OCO4)N(S(=O)(=O)c3ccc(C)cc3)C[C@H]2C(=O)O)cc1
R. Cc1ccc(S(=O)(=O)N2[C@@H](c3cccc(Br)c3)C(C(=O)O)=CC[C@H]2c2ccc(C(C)C)cc2)cc1
S. CC(C)CCS[C@H]1[C@@H](C(=O)O)[C@H](c2ccc(Cl)cc2)N(S(=O)(=O)c2ccccc2)[C@@H]1C(C)C
Please rank these molecules by Activity in descending order. Field: ranking. Enter the labels in the order requested.
Q, P, R, S

a. Cc1ccc(S(=O)(=O)N2C[C@@H](C(=O)O)[C@H](SCc3ccc(C(C)(C)C)cc3)C[C@H]2c2ccc3c(c2)OCO3)cc1
b. CCc1ccc([C@@H]2CC=C(C(=O)O)[C@H](c3ccc(Cl)cc3)N2S(=O)(=O)c2ccc(C)cc2)cc1
Would you kindly point out which of a and b has the smaller Activity figure? State the label of the item chosen.
a

I. CCOc1ccc([C@@H]2C[C@@H](SC3CCCC3)[C@H](C(=O)O)CN2S(=O)(=O)c2ccc(C)cc2)cc1
II. Cc1ccc([C@@H]2C[C@@H](SCc3ccc(Cl)cc3)[C@H](C(=O)O)CN2S(C)(=O)=O)cc1
Higher Activity between I and II ? Please identify the chosen entry by its label.
I
(I: 84.6%, II: 51.1%)

* * *

Organism: Rattus norvegicus
test summary: Inhibition of rat recombinant geranylgeranyltransferase type I expressed in Escherichia coli assessed as residual enzyme activity for geranylgeranylation of K-Ras4B at 50 uM incubated for 30 mins in presence of [3H]GGPP by scintillation counting assay relative to control
observed property: Activity (%)

COc1cc([C@@H]2C[C@@H](SC3CCCC3)[C@H](C(=O)O)CN2S(=O)(=O)c2ccc(C)cc2)cc(OC)c1OC
105
COc1ccc([C@@H]2C[C@@H](SCC(C)C)[C@H](C(=O)O)CN2S(=O)(=O)c2ccc(C)cc2)cc1OC
91.6
COc1cccc([C@@H]2C[C@@H](Sc3ccc(C)cc3)[C@H](C(=O)O)CN2S(=O)(=O)c2ccc(C)cc2)c1
77
COc1ccc([C@@H]2C[C@@H](Sc3ccc(C)cc3)[C@H](C(=O)O)CN2S(=O)(=O)c2ccc(C)cc2)cc1
91.8

* * *

Species: Rattus norvegicus
test summary: Inhibition of rat recombinant geranylgeranyltransferase type I expressed in Escherichia coli assessed as residual enzyme activity for geranylgeranylation of K-Ras4B at 50 uM incubated for 30 mins in presence of [3H]GGPP by scintillation counting assay relative to control
observed property: Activity (%)

Check out these entries, answers already filled in.
Cc1ccc(S(=O)(=O)N2[C@@H](c3ccc(Br)cc3)C(C(=O)O)=CC[C@H]2c2ccc(Cl)cc2)cc1
57.5
C=CCS[C@@H]1C[C@@H](c2ccc(C)cc2)N(S(=O)(=O)c2ccccc2)C[C@H]1C(=O)O
50.7
Cc1ccc([C@H]2C(C(=O)O)=CC[C@@H](c3ccccc3)N2S(C)(=O)=O)cc1
90.4
CCOc1ccc([C@@H]2C[C@@H](Sc3ccccc3)[C@H](C(=O)O)CN2S(=O)(=O)c2ccc(C)cc2)cc1
61.1
Cc1ccc([C@@H]2C[C@@H](SCCC(C)C)[C@H](C(=O)O)CN2S(=O)(=O)c2ccccc2)cc1
79.3
CCCCCCS[C@@H]1C[C@@H](c2ccccc2F)N(S(=O)(=O)c2ccc(C)cc2)C[C@H]1C(=O)O
75.3

A. Cc1ccc([C@@H]2C[C@@H](SCCc3ccccc3)[C@H](C(=O)O)CN2S(=O)(=O)c2ccccc2)cc1
B. Cc1ccc([C@@H]2C[C@@H](SC3CCCC3)[C@H](C(=O)O)CN2S(=O)(=O)c2ccccc2C)cc1
I'm curious, which of these has a smaller Activity number: A or B ? Lab log: write the label of the selected item as the result.
A
(A: 55.5%, B: 93.5%)

* * *

Organism: Rattus norvegicus
test summary: Inhibition of rat recombinant geranylgeranyltransferase type I expressed in Escherichia coli assessed as residual enzyme activity for geranylgeranylation of K-Ras4B at 50 uM incubated for 30 mins in presence of [3H]GGPP by scintillation counting assay relative to control
observed property: Activity (%)

Solved cases (4 shown):
COc1ccc(S[C@@H]2C[C@@H](c3ccc(OC)cc3)N(S(=O)(=O)c3ccccc3C)C[C@H]2C(=O)O)cc1
82.2
Cc1ccccc1S(=O)(=O)N1C[C@@H](C(=O)O)[C@H](SC2CCCC2)C[C@H]1c1ccc(Cl)cc1
92.1
CCS[C@@H]1C[C@@H](c2ccc3c(c2)OCO3)N(S(=O)(=O)c2ccc(C)cc2)C[C@H]1C(=O)O
91.5
Cc1ccc(S(=O)(=O)N2[C@@H](c3ccc(Cl)cc3)C(C(=O)O)=CC[C@H]2c2cccs2)cc1
75.6

a. Cc1ccc([C@H]2C(C(=O)O)=CC[C@@H](c3ccc(C)cc3)N2S(=O)(=O)c2ccccc2)cc1
b. Cc1ccc([C@@H]2CC=C(C(=O)O)[C@H](c3ccc(Cl)cc3)N2S(=O)(=O)c2ccc(Cl)cc2)cc1
c. C=CCS[C@H]1[C@@H](C(=O)O)[C@H](c2cccc(F)c2)N(S(=O)(=O)c2ccc(C)cc2)[C@@H]1CC1CCCC1
d. COc1ccc([C@@H]2C[C@@H](SCCc3ccccc3)[C@H](C(=O)O)CN2S(=O)(=O)c2ccc(C)cc2)cc1OC
List these items ordered by Activity, big to small. Answer by listing the labels in the requested order.
a, b, d, c

* * *

test summary: Antiproliferative activity against human SEMK2 cells assessed as inhibition of cell proliferation incubated for 6 days by CCK8 assay
Format: functional, cell-based
condition summary: SEMK2, 144 h
observed property: IC50 (µM)
Just the number please, in µM, no unit attached.

Bench note: what IC50 did Cc1ccccc1S(=O)(=O)N1[C@@H](c2ccc(Cl)cc2)C(COCC(=O)N[C@@H](Cc2ccccc2)C(N)=O)=C[C@H]1C(C)(C)C show?
14.1

These entries and their values trace back to ChEMBL document CHEMBL4421722.
